Target under test: Cytochrome P450 2C19 (Homo sapiens) (UniProt P33261)
Sequence (P33261 whole entry, looked up): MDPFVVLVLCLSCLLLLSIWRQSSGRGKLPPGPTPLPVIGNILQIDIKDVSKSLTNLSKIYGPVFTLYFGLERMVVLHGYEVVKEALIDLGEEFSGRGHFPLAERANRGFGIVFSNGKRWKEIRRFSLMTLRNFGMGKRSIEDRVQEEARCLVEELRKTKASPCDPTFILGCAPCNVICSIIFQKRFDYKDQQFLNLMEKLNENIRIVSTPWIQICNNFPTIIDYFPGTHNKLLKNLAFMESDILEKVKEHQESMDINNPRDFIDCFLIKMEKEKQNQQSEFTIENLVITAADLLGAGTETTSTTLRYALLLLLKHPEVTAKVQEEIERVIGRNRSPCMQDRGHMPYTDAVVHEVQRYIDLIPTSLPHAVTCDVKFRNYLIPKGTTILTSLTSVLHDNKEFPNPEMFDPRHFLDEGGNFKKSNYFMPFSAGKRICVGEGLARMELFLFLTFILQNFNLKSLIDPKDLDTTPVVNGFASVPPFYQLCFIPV
Test description: qHTS Assay for Inhibitors and Substrates of Cytochrome P450 2C19 (AID 899); also: nearly all actives have a fitted effect of over 60% in size
Condition details: recombinant CYP2C19, luciferin-H EGE luminescence; series mostly up to 11.4 µM
Inconclusive results are not listed. Activity calls are given as the source filed them. Calls follow the shape of the dose curve; as a rule, active = well fitted inhibition curve with a large enough effect; inconclusive = small, poorly fitted or top-dose-only effect; inactive = no such curve, though single readings can be large or run the other way.
Outcome codes: true = active, false = inactive

Compound: Nc1ccn([C@H]2CC[C@H](CO)O2)c(=O)n1
Target under test: Cytochrome P450 2C19 (Homo sapiens) (UniProt P33261)
Cat: false

Compound: O=[N+]([O-])c1ccc(CS(=O)Cc2ccccc2)cc1 (centres undefined)
Target under test: Cytochrome P450 2C19 (Homo sapiens) (UniProt P33261)
Cat: true

Compound: COc1ccc2nc(NCN3C(=O)c4ccccc4C3=O)sc2c1
Target under test: Cytochrome P450 2C19 (Homo sapiens) (UniProt P33261)
Cat: true

Compound: Cc1c(N2CCCC2)cc2c(c1NC(=O)c1ccccc1Cl)C(C)(C)CC2(C)C
Target under test: Cytochrome P450 2C19 (Homo sapiens) (UniProt P33261)
Cat: true

Compound: CSc1ncnc2c1ncn2CC(=O)[C@H]1CC[C@H]2[C@H]3CCC4=CC(=O)CC[C@@]4(C)[C@@H]3CC[C@@]12C
Target under test: Cytochrome P450 2C19 (Homo sapiens) (UniProt P33261)
Cat: false

Compound: O=C(O)CSSCC(=O)O
Target under test: Cytochrome P450 2C19 (Homo sapiens) (UniProt P33261)
Cat: false

Compound: CC[C@@]1([N+](=O)[O-])C[C@H]2C=C[C@@H]1C2
Target under test: Cytochrome P450 2C19 (Homo sapiens) (UniProt P33261)
Cat: false

Compound: O[C@@H]1[C@@H](OCc2ccccc2)OC[C@H](O)[C@@H]1O
Target under test: Cytochrome P450 2C19 (Homo sapiens) (UniProt P33261)
Cat: false

Compound: CC(C)=C[C@H]1[C@@H](C(=O)Oc2ccccc2C(C)C)C1(C)C
Target under test: Cytochrome P450 2C19 (Homo sapiens) (UniProt P33261)
Cat: true

* * *

Test description: AP1 Signaling Pathway (AID 357);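 also: ME-180 reporter cells stimulated with EGF at its EC50 level; % is scaled to controls: 0 for no effect and ±100 for the full control effect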
Condition details: ME-180 (cervical carcinoma) AP-1-bla reporter, EGF-induced, beta-lactamase ratio, 5 h; at 7.69 µM (top of the series) unless noted
Records with an inconclusive call do not appear. The source made the active and inactive calls. Calls follow the shape of the dose curve; as a rule, active = well fitted curve in either direction with a large enough effect (not every such curve was filed as active); inconclusive = small, poorly fitted or top-dose-only effect, or another doubt; inactive = flat fitted curve, though single readings scatter.
Property name: activity change, negative = inhibition

Compound: COC(=O)[C@]1(C)CCC(c2ccc(C)cc2)=C(CC(=O)O)C1
Property name: activity change, negative = inhibition
Measurement: -2.42% (inactive)
--
Compound: C[N+]1(CCC(=O)c2ccco2)CC2CCC(CC2)C1 (centres undefined)
Property name: activity change, negative = inhibition
Measurement: 6.86% (inactive)
--
Compound: [O-][N+](CCO)(CCO)c1ncnc2nc[nH]c12
Property name: activity change, negative = inhibition
Measurement: 1.99% (inactive)
--
Compound: N/C(CC(=O)Nc1cc(C(F)(F)F)ccc1Cl)=N\O
Property name: activity change, negative = inhibition
Measurement: -3.52% (inactive)
--
Compound: O=c1cc(CF)[nH]c(=S)[nH]1
Property name: activity change, negative = inhibition
Measurement: 6.77% (inactive)
--
Compound: CCN=C(N)CSS(=O)(=O)O
Property name: activity change, negative = inhibition
Measurement: 9.8% (inactive)
--
Compound: Cc1ccc(CSC(N)=Nc2ccccc2)cc1C
Property name: activity change, negative = inhibition
Measurement: 6.56% (inactive)
--
Compound: Cn1cnc([N+](=O)[O-])c1Sc1nnc(-c2cccnc2)n1C
Property name: activity change, negative = inhibition
Measurement: 19.7% (inactive)
--
Compound: O=C(O)/C(=C\c1ccccc1)Cc1ccccc1
Property name: activity change, negative = inhibition
Measurement: -5.32% (inactive)
--
Compound: Nc1ncnc2nc[nH]c12.Nc1ncnc2nc[nH]c12.[Cl][Pt]([Cl])([Cl])[Cl]
Property name: activity change, negative = inhibition
Measurement: -1.02% (inactive)
--
Compound: CO/N=C(\C(=O)N[C@@H]1C(=O)N2C(C(=O)[O-])=C(C[N+]3(C)CCCC3)CS[C@@H]12)c1csc(N)n1
Property name: activity change, negative = inhibition
Measurement: 2.79% [at 17.2 µM] (inactive)
--
Compound: COC(=O)c1cc(-c2ccc3ccccc3c2)[nH]c(=O)c1C#N
Property name: activity change, negative = inhibition
Measurement: -3.94% (inactive)
--
Compound: C[N@@+]1(CC[N@@+]2(C)CCC[C@H]2c2cccnc2)CCC[C@@H]1c1cccnc1
Property name: activity change, negative = inhibition
Measurement: 28.9% (inactive)
--
Compound: CN(C)S(=O)(=O)c1ccc(Nc2ccc(O)c3c2C(=O)c2c([N+](=O)[O-])ccc(O)c2C3=O)cc1
Property name: activity change, negative = inhibition
Measurement: -13.4% (inactive)

The measurements presented in this section are drawn from PubChem BioAssay (NCATS).
